tested on: VDR homodimer (NR concentration 270 nM); assay: PBM binding z-score (relative to random genomic background probes); higher = stronger binding; sequences stand for … in GC…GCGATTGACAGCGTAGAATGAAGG
Entries annotated with measured PBM binding z-score
Value Type: PBM binding z-score

• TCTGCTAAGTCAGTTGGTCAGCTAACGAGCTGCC = -0.941
• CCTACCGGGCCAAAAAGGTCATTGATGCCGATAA = 3.13
• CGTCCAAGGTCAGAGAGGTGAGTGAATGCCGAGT = 2.26
• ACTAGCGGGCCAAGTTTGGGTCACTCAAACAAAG = 0.0653
• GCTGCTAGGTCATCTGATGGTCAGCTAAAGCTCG = 0.443
• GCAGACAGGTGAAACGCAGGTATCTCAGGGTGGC = -0.528
• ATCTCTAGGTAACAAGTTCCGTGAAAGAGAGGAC = 0.475
• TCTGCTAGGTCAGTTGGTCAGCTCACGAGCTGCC = -0.78
• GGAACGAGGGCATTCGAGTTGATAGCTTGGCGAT = 3.03
• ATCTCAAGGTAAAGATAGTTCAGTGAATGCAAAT = 0.351
• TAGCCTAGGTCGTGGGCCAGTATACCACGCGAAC = -0.53
• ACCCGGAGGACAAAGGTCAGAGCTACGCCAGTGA = 1.24
• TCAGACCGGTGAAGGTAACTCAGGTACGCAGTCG = 0.152
• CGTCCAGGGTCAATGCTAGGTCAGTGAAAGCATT = 2.33

====

tested on: RARb:RXRa (NR concentration 270 nM, RXRa partner concentration 90 nM); assay: PBM binding z-score (relative to random genomic background probes); higher = stronger binding; sequences stand for … in GC…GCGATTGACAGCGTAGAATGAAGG
Catalogue of PBM binding z-score readings, one per entry.
Value Type: PBM binding z-score

* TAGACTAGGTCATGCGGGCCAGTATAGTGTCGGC | 3.55
* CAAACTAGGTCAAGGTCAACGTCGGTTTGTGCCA | 5.36
* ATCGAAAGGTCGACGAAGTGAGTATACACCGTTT | 3.71
* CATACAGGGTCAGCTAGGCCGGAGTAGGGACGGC | 3.87
* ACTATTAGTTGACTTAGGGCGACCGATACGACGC | 0.512
* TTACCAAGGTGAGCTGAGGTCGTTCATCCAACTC | 1.74
* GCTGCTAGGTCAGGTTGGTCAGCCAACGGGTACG | 3.2
* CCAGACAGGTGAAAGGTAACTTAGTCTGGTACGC | 1.15
* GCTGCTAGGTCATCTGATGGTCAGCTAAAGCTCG | 4.07
* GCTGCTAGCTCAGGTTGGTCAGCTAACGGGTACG | -0.463
* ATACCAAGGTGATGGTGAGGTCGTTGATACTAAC | 1.17
* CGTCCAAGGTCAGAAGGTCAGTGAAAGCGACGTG | 5.45
* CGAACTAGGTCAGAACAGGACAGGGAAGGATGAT | 3.02
* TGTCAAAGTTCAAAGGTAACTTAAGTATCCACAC | 5.23
* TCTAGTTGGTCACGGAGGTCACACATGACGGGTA | 4.01
* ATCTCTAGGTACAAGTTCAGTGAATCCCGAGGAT | 1.66
* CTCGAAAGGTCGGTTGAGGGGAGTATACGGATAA | 3.02

====

system: THRa homodimer (NR concentration 90 nM); assay: PBM binding z-score (relative to random genomic background probes); higher = stronger binding; sequences stand for … in GC…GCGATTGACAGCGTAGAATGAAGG
Here the recorded PBM binding z-score is given for each entry.
Value Type: PBM binding z-score

- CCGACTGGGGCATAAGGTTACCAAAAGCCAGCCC: 1.14
- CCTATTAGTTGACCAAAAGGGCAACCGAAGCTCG: 0.0968
- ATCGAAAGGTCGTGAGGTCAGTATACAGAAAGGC: 3.19
- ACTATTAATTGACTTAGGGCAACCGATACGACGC: 1.15
- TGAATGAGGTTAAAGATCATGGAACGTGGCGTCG: 0.35
- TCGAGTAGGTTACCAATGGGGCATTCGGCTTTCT: -0.584
- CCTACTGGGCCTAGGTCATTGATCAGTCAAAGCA: 0.765
- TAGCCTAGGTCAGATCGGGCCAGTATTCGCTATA: -0.138
- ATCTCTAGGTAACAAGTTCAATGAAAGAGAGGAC: 1.19

====

PBM binding z-score overview
tested on: LXRb homodimer (NR concentration 270 nM); experiment: PBM binding z-score (relative to random genomic background probes); higher = stronger binding; sequences stand for … in GC…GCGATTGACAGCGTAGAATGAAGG
Value Type: PBM binding z-score

* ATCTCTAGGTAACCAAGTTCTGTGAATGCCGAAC | 0.457
* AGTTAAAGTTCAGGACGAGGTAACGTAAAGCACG | 0.474
* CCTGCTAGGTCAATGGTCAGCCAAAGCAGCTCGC | -0.223
* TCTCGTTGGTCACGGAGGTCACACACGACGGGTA | 1.11

====

tested on: PPARg DBDmut IVT, anti-PPARg (DBD mutation: PPARg1 K132A/R137A, NR concentration 270 nM); test: PBM binding z-score (relative to random genomic background probes); higher = stronger binding; sequences stand for … in GC…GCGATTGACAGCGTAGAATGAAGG
Measured PBM binding z-score, listed per entry for reference.
Value Type: PBM binding z-score

- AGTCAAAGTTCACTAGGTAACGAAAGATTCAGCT: 1.35
- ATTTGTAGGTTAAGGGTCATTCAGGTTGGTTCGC: 2.85
- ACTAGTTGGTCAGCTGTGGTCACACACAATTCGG: 0.115
- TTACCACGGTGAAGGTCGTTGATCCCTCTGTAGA: -0.0664
- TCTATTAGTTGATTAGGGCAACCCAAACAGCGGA: 1.89
- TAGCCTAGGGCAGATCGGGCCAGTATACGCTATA: -1.38
- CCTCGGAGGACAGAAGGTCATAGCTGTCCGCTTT: -1.54
- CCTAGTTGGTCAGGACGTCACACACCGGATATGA: 0.0179
- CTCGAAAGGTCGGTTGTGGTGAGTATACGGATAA: 0.467
- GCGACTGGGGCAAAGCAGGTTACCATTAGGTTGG: -0.886
- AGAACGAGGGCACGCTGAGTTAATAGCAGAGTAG: 0.0711

====

Attribute: PBM binding z-score
tested on: THRa:RXRa (NR concentration 90 nM, RXRa partner concentration 90 nM); experiment: PBM binding z-score (relative to random genomic background probes); higher = stronger binding; sequences stand for … in GC…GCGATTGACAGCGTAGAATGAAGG
Value Type: PBM binding z-score

• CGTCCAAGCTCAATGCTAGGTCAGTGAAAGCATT = 1.09
• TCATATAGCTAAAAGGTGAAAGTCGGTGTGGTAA = 0.958
• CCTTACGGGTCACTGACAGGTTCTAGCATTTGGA = 2.45
• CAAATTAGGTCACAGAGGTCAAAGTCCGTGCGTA = 4.73
• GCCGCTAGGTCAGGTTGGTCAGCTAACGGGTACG = 1.81
• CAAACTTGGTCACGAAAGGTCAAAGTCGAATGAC = 4.07
• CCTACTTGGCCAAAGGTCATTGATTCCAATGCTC = 3.3
• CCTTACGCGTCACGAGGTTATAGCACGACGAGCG = 1.51

====

test system: FXR:RXRa (NR concentration 270 nM, RXRa partner concentration 90 nM); test: PBM binding z-score (relative to random genomic background probes); higher = stronger binding; sequences stand for … in GC…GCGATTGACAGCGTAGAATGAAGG
Value Type: PBM binding z-score

* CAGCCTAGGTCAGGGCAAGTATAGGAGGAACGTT | 2.01
* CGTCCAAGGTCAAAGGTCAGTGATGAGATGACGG | 8.34
* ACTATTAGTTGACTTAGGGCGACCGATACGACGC | 0.233
* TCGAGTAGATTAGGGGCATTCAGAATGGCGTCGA | -0.41
* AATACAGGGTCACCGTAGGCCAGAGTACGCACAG | 7.2
* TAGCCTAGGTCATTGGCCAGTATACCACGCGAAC | 4.93
* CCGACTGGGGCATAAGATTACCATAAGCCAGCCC | -0.495
* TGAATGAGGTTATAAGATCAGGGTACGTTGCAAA | 1.46
* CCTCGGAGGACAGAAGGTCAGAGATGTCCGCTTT | 0.986
* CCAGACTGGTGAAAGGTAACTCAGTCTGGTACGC | -0.45
* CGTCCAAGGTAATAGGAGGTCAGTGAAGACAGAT | 1.29
* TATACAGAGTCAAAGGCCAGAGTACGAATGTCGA | 0.1
* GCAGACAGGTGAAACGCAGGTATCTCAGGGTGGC | -0.22
* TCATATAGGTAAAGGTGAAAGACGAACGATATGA | 1.12
